Target: yeast alpha-glucosidase
Assay: Alpha-glucosidase inhibition assay
Settings: isolated compounds
Method: Extracts and fractions EA1–EA16 were evaluated for the alpha-glucosidase inhibition to choose the fraction for further analysis. The isolation of 1–11 was described in Scheme 1 using silica gel CC with various solvent systems. Evaluation of the inhibitory activity of 1–11 against yeast alpha-glucosidase followed a previous procedure.[34]
IC50 values by entry

{"columns": ["molecule", "value-units", "limit-operator", "IC50"],
 "data": [
  ["CC(C)=CCC/C(C)=C/C[C@H]1C[C@]2(CC=C(C)C)C(=O)[C@@](CC=C(C)C)(C(=O)C(C(=O)c3ccc(O)c(O)c3)=C2O)[C@]1(C)CCC=C(C)C", "µM", "=", 29.4],
  ["COc1cc2oc3cc(O)c(OC)c(CC=C(C)C)c3c(=O)c2c(O)c1CC=C(C)C", "µM", ">", 200],
  ["CC(C)=CCC/C(C)=C/C[C@]12C[C@@H]3C[C@H]4C(C)(C)CC[C@@]4(C1=O)C(=O)[C@](C(=O)c1ccccc1)(C2=O)C3(C)C", "µM", "=", 56.9]
]}

Attribution: paper PMC10694853
